details: 318.4 K; Liquid; Closed cell (Static) method
± gives the expanded uncertainty stated by the source.
vapor or sublimation pressure values for the molecules below.

CCCC [butane]; 436.55 ± 1.9 kPa
C/C=C\C [(Z)-2-butene]; 391.45 ± 1.8 kPa
CCOC(C)=O [ethyl acetate]; 31.37 ± 0.42 kPa

Turning to the following molecule.
Look at this molecule and give its reported vapor or sublimation pressure. C=C(C)C [2-methylpropene] 538.15 ± 2.3 kPa
